For each of the binders below, state its pKd.
- experimental-system: T1, human IL-18BP-His (human, UniProt O95998 31-194, limits assumed)
- T1 construct: also called His-tagged human IL-18BP; not shown: His tag
- T1 sequence (looked up): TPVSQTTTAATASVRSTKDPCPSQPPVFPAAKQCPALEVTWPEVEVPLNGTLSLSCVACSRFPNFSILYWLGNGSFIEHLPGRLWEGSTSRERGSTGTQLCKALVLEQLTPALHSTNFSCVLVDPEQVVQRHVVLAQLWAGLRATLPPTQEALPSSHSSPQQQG
- run-description: AlphaLISA of free IL-18BP
Give bare numbers, as −log10 of the molar value.

Previously resolved entries follow.
{"binder": "IL-18 polypeptide C156 (ligand, also called V11I, C38A, N41A, K53A, C76A, C127A) YFGKLESKLSIIRNLNDQVLFIDQGNRPLFEDMTDSDARDAAPRTIFIISMYADSQPRGMAVTISVKCEKISTLSAENKIISFKEMNPPDNIKDTKSDIIFFQRSVPGHDNKMQFESSSYEGYFLAAEKERDLFKLILKKEDELGDRSIMFTVQNED", "pKd": 7.73}
{"binder": "IL-18 polypeptide of SEQ ID NO: 48 (C38S, C68S, C76S, C127S, K70C) (ligand) YFGKLESKLSVIRNLNDQVLFIDQGNRPLFEDMTDSDSRDNAPRTIFIISMYKDSQPRGMAVTISVKSECISTLSSENKIISFKEMNPPDNIKDTKSDIIFFQRSVPGHDNKMQFESSSYEGYFLASEKERDLFKLILKKEDELGDRSIMFTVQNED", "pKd": 9.68}
{"binder": "IL-18 polypeptide C152 (ligand, also called V11I, S36A, C38A, K53A, C76A, C127A) YFGKLESKLSIIRNLNDQVLFIDQGNRPLFEDMTDADARDNAPRTIFIISMYADSQPRGMAVTISVKCEKISTLSAENKIISFKEMNPPDNIKDTKSDIIFFQRSVPGHDNKMQFESSSYEGYFLAAEKERDLFKLILKKEDELGDRSIMFTVQNED", "pKd": 8.95}
{"binder": "IL-18 polypeptide C163 (ligand, also called V11I, C38A, C76A, Q103K, C127A) YFGKLESKLSIIRNLNDQVLFIDQGNRPLFEDMTDSDARDNAPRTIFIISMYKDSQPRGMAVTISVKCEKISTLSAENKIISFKEMNPPDNIKDTKSDIIFFKRSVPGHDNKMQFESSSYEGYFLAAEKERDLFKLILKKEDELGDRSIMFTVQNED", "pKd": 10.30}

Consider the additional binder presented here.
Request: # lookup: pKd of IL-18 polypeptide C162 (ligand, also called K8E, V11I, C38A, C76A, Q103R, C127A) YFGKLESELSIIRNLNDQVLFIDQGNRPLFEDMTDSDARDNAPRTIFIISMYKDSQPRGMAVTISVKCEKISTLSAENKIISFKEMNPPDNIKDTKSDIIFFRRSVPGHDNKMQFESSSYEGYFLAAEKERDLFKLILKKEDELGDRSIMFTVQNED
Result: 9.07
